Reported values: Ki for 5-HT1A receptor (Bos taurus, UniProt F6Q2H9), one per item.
Where a name gives a salt, the structure may show the parent alone.

| compound | Ki, nM |
| --- | --- |
| COc1cccc2c1OC(CNCC1CCCCC1)CC2 (stereo not drawn) [Example 17, hydrochloride] | 0.7 |
| c1ccc2c(c1)CCC(CNCC1CC1)O2 (stereo not drawn) | 2.3 |
| c1ccc(CN2CCC(CNCC3CCc4ccccc4O3)CC2)cc1 (stereo not drawn) | 0.5 |

---

Entries and their pKi values follow.
# measured.target: sigma receptor
# protocol.summary: Affinity for the sigma receptor, DTG binding to calf hippocampus membranes
# condition.set: 3-di-o-tolyl-guanidine (DTG), Ki calculated from IC50
pKi: −log10 of the molar value. Counter-ions that a name gives are not always drawn.
readout.label: pKi

| molecule | readout.label | measured.value |
| --- | --- | --- |
| COc1cccc2c1OC(CNCC1CCCCC1)CC2 (stereo not drawn) [Example 17, hydrochloride] | pKi | 8.10 |
| c1ccc2c(c1)CCC(CNCC13CC4CC(CC(C4)C1)C3)O2 (stereo not drawn) | pKi | 7.80 |
| COc1cccc2c1O[C@@H](CN(C)CC1CCCCCC1)CC2 [Example 13, hydrochloride] | pKi | 8.30 |
| c1ccc2c(c1)CC[C@@H](CNCC1CCCCCC1)O2 [Example 1, hydrochloride] | pKi | 8.15 |
| COc1ccc(CNCC2CCc3cccc(OC)c3O2)cc1 (stereo not drawn) | pKi | 7.52 |
| c1ccc(CN2CCC(CNCC3CCc4ccccc4O3)CC2)cc1 (stereo not drawn) | pKi | 7.60 |
